FYI, the data here is from paper PMC7156458.

- study.system: Aβ42 (Homo sapiens, UniProt P05067)
- Sequence (P05067 672-713): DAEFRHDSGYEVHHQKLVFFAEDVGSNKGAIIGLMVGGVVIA
- assay.protocol: Th-T (thioflavin-T) assay of Aβ42 aggregation
- Assay type: biochemical
- settings: column suffix _20; reading M85
reported.endpoint: Fig. 7a Th-T reading, mean of three wells
One number for each entry.

Example molecules with recorded Fig. 7a Th-T reading, mean of three wells:
| molecule | test.result |
| --- | --- |
| C=C1CC[C@@H]2[C@](C)(CC[C@H]3O[C@H](C=C(C)C)C[C@@]23C)[C@@H]1Cc1c(OC)oc(CO)c(C)c1=O [Compound 20] | 3.286 |
| C=C1CCC2C(C)(CCC=C(C)C)C(O)CCC2(C)C1Cc1c(OC)oc(CO)c(C(=O)OC)c1=O (centres unmarked) [Compound 13] | 1.042 |
| C=C1CCC2C(C)(CCC=C(C)C)C(O)CCC2(C)C1Cc1c(OC)oc(C)c(C(=O)OC)c1=O (centres unmarked) [Compound 14] | 1.842 |
| C=C1CC[C@@H]2[C@](C)(CC[C@H]3O[C@H](C=C(C)C)C[C@@]23C)[C@@H]1Cc1c(OC)oc(CO)c(C(=O)OC)c1=O [Compound 21] | 0.5666 |

Q: Specify measured Fig. 7a Th-T reading, mean of three wells for C=C1CCC2C(C)(CCC=C(C)C)C(O)CCC2(C)C1Cc1c(OC)oc(CO)c(C)c1=O (centres unmarked) [Compound 12] .
Ans: 2.083

###

- Test system: l(2)mbn cells
- assay.protocol: cytotoxicity in Drosophila l(2)mbn cells
- Assay type: cell-based
- settings: read-out: IC50 (2), cytotoxicity, replicate 2
Answer each item with its documented pIC50.
Give bare numbers, as −log10 of the molar value.

| compound | pIC50 |
| --- | --- |
| C=C1CCC2C(C)(CCC=C(C)C)C(O)CCC2(C)C1Cc1c(OC)oc(C)c(C)c1=O (centres unmarked) [Compound 11] | 6.59 |

Q: Answer with the recorded pIC50 for the compound listed here: C=C1CCC2C(C)(CCC=C(C)C)C(O)CCC2(C)C1Cc1c(OC)oc(C)c(C)c1=O (centres unmarked) [Compound 15, viridoxin A hydrolysate]
Ans: 5.30

###

- study.system: Aβ42 (Homo sapiens, UniProt P05067)
- assay.protocol: Th-T (thioflavin-T) assay of Aβ42 aggregation
- Format: biochemical
- settings: column suffix _50; reading M97
I'd be grateful if you could share measured Fig. 7a Th-T reading, mean of three wells for these entries.
Give bare numbers.

Example results:
| compound | study.system | test.result |
| --- | --- | --- |
| C=C1CCC2C(C)(CCC=C(C)C)C(O)CCC2(C)C1Cc1c(OC)oc(CO)c(C(=O)OC)c1=O (centres unmarked) | Aβ42 (Homo sapiens, UniProt P05067) | 0.4689 |
| C=C1CCC2C(C)(CCC=C(C)C)C(O)CCC2(C)C1Cc1c(OC)oc(C)c(C(=O)OC)c1=O (centres unmarked) | Aβ42 (Homo sapiens, UniProt P05067) | 1.553 |
| C=C1CC[C@@H]2[C@](C)(CC[C@H]3O[C@H](C=C(C)C)C[C@@]23C)[C@@H]1Cc1c(OC)oc(CO)c(C(=O)OC)c1=O | Aβ42 (Homo sapiens, UniProt P05067) | 0.4639 |
| C=C1CC[C@@H]2[C@](C)(CC[C@H]3O[C@H](C=C(C)C)C[C@@]23C)[C@@H]1Cc1c(OC)oc(CO)c(C)c1=O | Aβ42 (Homo sapiens, UniProt P05067) | 2.084 |

Q: Read the entry C=C1CCC2C(C)(CCC=C(C)C)C(O)CCC2(C)C1Cc1c(OC)oc(CO)c(C)c1=O (centres unmarked) and write its reported Fig. 7a Th-T reading, mean of three wells.
Ans: 1.401
